Data provenance: paper PMC9482650

- TARGET SYSTEM: LNX1_2, Q8TBB1
- Sequence (Q8TBB1 371-470): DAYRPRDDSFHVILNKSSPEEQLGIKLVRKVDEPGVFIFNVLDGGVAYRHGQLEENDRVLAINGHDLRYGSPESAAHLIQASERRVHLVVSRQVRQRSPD
- EXPERIMENT: holdup assay
- Parameters: key: below the threshold = too weak to quantify, mostly under pKd 3.1 to 4
- SETUP CONDITIONS: plain residues with an end cap or a label only (N-terminal biotin on a linker: ttds)
METRIC NAME: pKd
Format: numeric value only, no unit, no commentary.

QRQARSETLV [HPV59-E6, Q81964]: 4.25
SSLQSLETSV [ATP2B4, P23634]: 3.7
RHTTSTETAV [HPV30-E6, P36809]: 3.67

# ---- query binder ----
# lookup: pKd of RLPKIKETTV [FRMPD4, Q14CM0]
3.42
